Assay: Solubility in PBS
Assay type: physicochemical
recorded metric: Solubility (µM)
The reply should be a number in µM, with the unit left off.

Use the examples below as a reference point.
molecule	recorded metric	unit symbol	val
CC(=O)N1CCC[C@]12CC=CCCCC1(CCCC=CCCCCCC[C@@](C)(C(=O)N[C@@H](Cc3ccsc3)C(=O)N[C@@H](Cc3csc4ccccc34)C(=O)N[C@H](C(N)=O)[C@@H](C)O)NC(=O)[C@H](CC(C)C)NC(=O)[C@H](Cc3ccccc3)NC(=O)[C@H](C)NC(=O)[C@H](C)NC(=O)[C@H](CC(=O)O)NC(=O)[C@H](CC(=O)O)NC1=O)NC(=O)[C@H](CC(C)(C)C)NC(=O)[C@H](CC(=O)O)NC2=O (stereo partly drawn)	Solubility	µM	10
CC[C@H](C)[C@@H]1NC(=O)[C@H](CC(=O)O)NC(=O)[C@]2(CC=CCCCC3(CCCC=CCCCCCC[C@@](C)(C(=O)N[C@@H](Cc4ccccc4)C(=O)N[C@@H](Cc4csc5ccccc45)C(=O)N[C@@H](CCC(N)=O)C(N)=O)NC(=O)[C@H](CCC(N)=O)NC(=O)[C@H](Cc4ccccc4)NC(=O)[C@H](CC(C)C)NC(=O)[C@H](C)NC(=O)[C@H](CCC(=O)O)NC(=O)[C@H](CC(=O)O)NC3=O)NC1=O)CCCN2C(C)=O (stereo partly drawn) [I-659]	Solubility	µM	48

Now examine the next entry.
stdin: State the recorded Solubility for this entry: CC(=O)N1CCC[C@]12CC=CCCCC1(CCCC=CCCCCCC[C@@](C)(C(=O)N[C@@H](Cc3ccccc3)C(=O)N[C@@H](Cc3c[nH]c4ccccc34)C(=O)N[C@@H](CCC(N)=O)C(N)=O)NC(=O)[C@H](C(C)C)NC(=O)[C@H](Cc3ccccc3)NC(=O)[C@H](C)NC(=O)[C@H](C)NC(=O)[C@H](CC(=O)O)NC(=O)[C@H](CC(=O)O)NC1=O)NC(=O)[C@H](C)NC(=O)[C@H](C)NC2=O (stereo partly drawn) [I-348]
stdout: 46

----------
Target: full-length B-Catenin (Uniprot ID P35222) (Homo sapiens)
Construct: 65 nM full-length B-Catenin (Uniprot ID P35222)
Sequence (P35222 whole entry): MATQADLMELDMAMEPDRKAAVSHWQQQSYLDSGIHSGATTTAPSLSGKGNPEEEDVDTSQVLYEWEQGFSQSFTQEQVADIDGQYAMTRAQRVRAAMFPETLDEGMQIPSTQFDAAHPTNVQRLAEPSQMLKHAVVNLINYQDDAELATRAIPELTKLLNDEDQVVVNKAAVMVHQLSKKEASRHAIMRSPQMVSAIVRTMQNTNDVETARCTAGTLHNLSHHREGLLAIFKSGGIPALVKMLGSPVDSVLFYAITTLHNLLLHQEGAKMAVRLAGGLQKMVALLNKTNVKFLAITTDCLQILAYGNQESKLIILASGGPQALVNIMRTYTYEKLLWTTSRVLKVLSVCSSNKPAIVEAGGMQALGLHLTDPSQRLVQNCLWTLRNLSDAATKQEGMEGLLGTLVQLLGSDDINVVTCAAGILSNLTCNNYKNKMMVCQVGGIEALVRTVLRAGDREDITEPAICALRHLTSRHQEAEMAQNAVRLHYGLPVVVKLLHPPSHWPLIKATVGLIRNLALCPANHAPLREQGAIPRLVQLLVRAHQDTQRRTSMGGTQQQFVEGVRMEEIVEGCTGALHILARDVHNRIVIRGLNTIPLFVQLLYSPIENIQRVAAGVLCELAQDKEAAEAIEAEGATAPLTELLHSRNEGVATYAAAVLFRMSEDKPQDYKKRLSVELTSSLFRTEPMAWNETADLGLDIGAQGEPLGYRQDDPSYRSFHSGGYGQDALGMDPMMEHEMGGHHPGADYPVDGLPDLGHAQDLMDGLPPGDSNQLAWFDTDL
Assay: Alphascreen binding assay (beta-catenin / biotin-TCF4 10-53)
Measured EC50 by item
The reply should be a number in µM, with the unit left off.

compound	recorded metric	unit symbol	val
COc1cccc(C[C@@H]2NC(=O)[C@H](C)NC(=O)[C@H](C)NC(=O)[C@H](CC(=O)O)NC(=O)[C@H](CC(=O)O)NC(=O)[C@](C)(NC(=O)[C@H](C)NC(=O)[C@H](CC(=O)O)NC(=O)[C@H](Cc3ccccc3)NC(C)=O)CCCCCCC=CCOC(=O)N3CC[C@@](C(=O)N[C@@H](Cc4ccccc4)C(=O)N[C@@H](Cc4c[nH]c5ccccc45)C(=O)N[C@@H](CCC(N)=O)C(N)=O)(C3)NC(=O)[C@H](C(C)C)NC2=O)c1 [I-104]	EC50	µM	6.17
CCN(CC(=O)O)C[C@@H]1NC(=O)[C@H](CC(=O)O)NC(=O)C2(CCCC=CCCCCCC[C@@](C)(C(=O)N[C@@H](Cc3ccccc3)C(=O)N[C@@H](Cc3c[nH]c4ccccc34)C(=O)N[C@@H](CCC(N)=O)C(N)=O)NC(=O)[C@H](C(C)C)NC(=O)[C@H](Cc3ccccc3)NC(=O)[C@H](C)NC(=O)[C@H](C)NC1=O)CCCC=CC[C@]1(CCCN1C(C)=O)C(=O)N[C@@H](CC(=O)O)C(=O)N[C@@H](C)C(=O)N2 (some centres unmarked) [I-172]	EC50	µM	0.324

stdin: full-length B-Catenin (Uniprot ID P35222) (Homo sapiens) / EC50 / CC(=O)N[C@@H](Cc1ccccc1)C(=O)N[C@@H](CC(=O)O)C(=O)N[C@@H](C)C(=O)N[C@]1(C)CCCCCCC=CCOC(=O)N2CC[C@@](C(=O)N[C@@H](CC3CCCC3)C(=O)N[C@@H](Cc3c[nH]c4ccccc34)C(=O)N[C@@H](CCC(N)=O)C(N)=O)(C2)NC(=O)[C@H](C(C)C)NC(=O)[C@H](Cc2ccccc2)NC(=O)[C@H](C)NC(=O)[C@H](C)NC(=O)[C@H](CC(=O)O)NC(=O)[C@H](CC(=O)O)NC1=O (single isomer, unassigned) : value?
stdout: 7.01

stdin: full-length B-Catenin (Uniprot ID P35222) (Homo sapiens) / EC50 / CC(=O)N1CCC[C@]12CC=CCCCC1(CCCC=CCCCCCC[C@@](C)(C(=O)N[C@@H](Cc3ccccc3)C(=O)N[C@@H](Cc3c[nH]c4ccccc34)C(=O)N[C@@H](CCC(N)=O)C(N)=O)NC(=O)[C@H](C(C)C)NC(=O)[C@H](Cc3ccccc3)NC(=O)[C@H](C)NC(=O)[C@H](C)NC(=O)[C@H](CC(N)=O)NC(=O)[C@H](CC(=O)O)NC1=O)NC(=O)[C@H](C)NC(=O)[C@H](CC(=O)O)NC2=O (some centres unmarked) : value?
stdout: 1.28

stdin: full-length B-Catenin (Uniprot ID P35222) (Homo sapiens) / EC50 / CC(=O)N[C@@H](Cc1ccccc1)C(=O)N[C@@H](CC(=O)O)C(=O)N[C@@H](C)C(=O)N[C@]1(C)CCCCCCC=CCOC(=O)N2CC[C@@](C(=O)N[C@@H](Cc3ccccc3)C(=O)N[C@@H](Cc3c[nH]c4ccccc34)C(=O)N[C@@H](CCC(N)=O)C(N)=O)(C2)NC(=O)[C@H](C(C)C)NC(=O)[C@H](CC2CCCC2)NC(=O)[C@H](C)NC(=O)[C@H](C)NC(=O)[C@H](CC(=O)O)NC(=O)[C@H](CC(=O)O)NC1=O (single isomer, unassigned) : value?
stdout: 8.66

----------
Target: beta-catenin/TCF4 engagement (Homo sapiens, UniProt P35222)
Construct: expressed in transfected cells; host or cells: HEK293
Experiment: Nano-BRET target engagement assay (B-cat-Halo & TCF4-Luc in HEK293 cells)
Type: cell-based
Conditions: absolute IC50; read-out: NanoBRET Abs IC50
recorded metric: IC50 (µM)
The reply should be a number in µM, with the unit left off.

compound	unit symbol	val
CC(=O)N1CCC[C@]12CC=CCCCC1(CCCC=CCCCOC(=O)N3CC[C@@](C(=O)N[C@@H](Cc4ccsc4)C(=O)N[C@@H](Cc4ccc(F)c(Br)c4)C(=O)N[C@@H](C)C(N)=O)(C3)NC(=O)[C@H](C(C)C)NC(=O)[C@H](Cc3ccccc3)NC(=O)[C@H](C)NC(=O)[C@H](CCC(N)=O)NC(=O)[C@H](Cc3cccc(C(=O)O)c3)NC(=O)[C@H](CC(=O)O)NC1=O)NC(=O)[C@H](CC(C)(C)C)NC(=O)[C@H](CC(=O)O)NC2=O (some centres unmarked) [I-2288]	µM	6.7

Now examine the next entry.
stdin: State the recorded IC50 for this entry: CC(=O)N1CCC[C@]12CC=CCCCC1(CCCC=CCCCOC(=O)N3CC[C@@](C(=O)N[C@@H](Cc4ccsc4)C(=O)N[C@@H](Cc4csc5ccccc45)C(=O)N[C@@H](CCC(N)=O)C(=O)N[C@H](CO)Cc4ccccc4)(C3)NC(=O)[C@H](CC(C)C)NC(=O)[C@H](Cc3ccccc3)NC(=O)[C@H](C)NC(=O)[C@H](C)NC(=O)[C@H](CN(CC(=O)O)CC(F)(F)F)NC(=O)[C@H](CC(=O)O)NC1=O)NC(=O)[C@H](CC(C)(C)C)NC(=O)[C@H](CC(=O)O)NC2=O (some centres unmarked) [I-1680]
stdout: 12.5

----------
Measured IC50 by item
Target: full-length beta-Catenin (Uniprot ID P35222) (Homo sapiens)
Construct: 10 nM full-length beta-Catenin (Uniprot ID P35222)
Assay: Fluorescence polarization IC50 (beta-catenin / 5FAM-TCF4 10-53 competition)
Format: binding
Settings: read-out: FP EC50; fluorescence polarization, beta-catenin
The reply should be a number in nM, with the unit left off.

compound	unit symbol	IC50
C[C@@H]1NC(=O)[C@H](C)NC(=O)[C@H](CC(=O)O)NC(=O)[C@H](CC(=O)O)NC(=O)C2(CCCC=CCCCCCC[C@@](C)(C(=O)N[C@@H](Cc3ccsc3)C(=O)N[C@@H](Cc3csc4ccccc34)C(=O)N[C@@H](CCC(N)=O)C(N)=O)NC(=O)[C@H](CC(N)=O)NC(=O)[C@H](Cc3ccccc3)NC1=O)CCCC=CC[C@]1(CCCN1C(=O)CN=[N+]=[N-])C(=O)N[C@@H](CC(=O)O)C(=O)N[C@@H](CC(C)(C)C)C(=O)N2 (stereo partly drawn) [I-1052]	nM	9
C[C@@H]1NC(=O)[C@H](C)NC(=O)[C@H](CC(=O)O)NC(=O)[C@H](CC(=O)O)NC(=O)C2(CCCC=CCCCCCC[C@@](C)(C(=O)N[C@@H](Cc3ccsc3)C(=O)N[C@@H](Cc3csc4ccccc34)C(=O)N[C@@H](CCC(N)=O)C(N)=O)NC(=O)[C@H](CC(N)=O)NC(=O)[C@H](Cc3ccccc3)NC1=O)CCCC=CC[C@]1(CCCN1C(=O)CN=[N+]=[N-])C(=O)N[C@@H](CC(=O)O)C(=O)N[C@@H](CC(C)(C)C)C(=O)N2 (stereo partly drawn) [I-1053]	nM	11

stdin: State the recorded IC50 for this entry: C[C@@H]1NC(=O)[C@H](C)NC(=O)[C@H](CN(CC(=O)O)CC(F)(F)F)NC(=O)[C@H](Cc2ccsc2)NC(=O)C2(CCCC=CCCCOC(=O)N3CC[C@@](C(=O)N[C@@H](CC(=O)O)C(=O)N[C@@H](Cc4csc5ccccc45)C(=O)N[C@@H](CCC(N)=O)C(N)=O)(C3)NC(=O)[C@H](CC(N)=O)NC(=O)[C@H](Cc3ccccc3)NC1=O)CCCC=CC[C@]1(CCCN1C(=O)CN=[N+]=[N-])C(=O)N[C@@H](CC(=O)O)C(=O)N[C@@H](CC(C)(C)C)C(=O)N2 (stereo partly drawn) [I-1057]
stdout: 6640
